Recorded values, source patent US7511041B2.

Exercise: for every item that follows, state its recorded melting point.

1) O=C(NC1=Nc2ccccc2C2=NCCN12)c1ccc(-n2ccnc2)cc1 : 267 °C (dec.)
2) COc1ccc2c(c1OC)N=C(NC(=O)c1cnc3[nH]cnc3c1)N1CCN=C21 : 233 °C (dec.)

Ask: Tell me its melting point given COc1c(O)ccc2c1N=C(/C=C(\O)c1cccnc1)N1CCN=C21.Cl as the entry.
Reply: 245 °C (dec.)

====

Assignment: determine reported melting point for the given molecules.

For each of the items listed, what is its melting point?
1. O=C(NC1=Nc2ccccc2C2=NCCN12)c1sccc1Cl
2. Cl.O=C(NC1=Nc2ccccc2C2=NCCN12)c1ccc2ncsc2c1
3. Cl.O/C(=C\C1=Nc2ccccc2C2=NCCN12)c1cccnc1
4. Cl.O/C(=C\C1=Nc2cc(N3CCOCC3)ccc2C2=NCCN12)c1cccnc1

Reply:
198 to 199 °C
314 °C (dec.)
260 °C (dec.)
> 300 °C

====

# Subject Of Test: Recombinant human PI3Kγ (full length human PI3K p110γ) (Homo sapiens)
# Construct: full length human PI3K p110γ fused with a His6-tag at the C-terminus; His6 (C); purchased ALEXIS BIOCHEMICALS #201-055-C010; host or cells: S. frugiperda 9 insect cells
# Sequence (P48736 whole entry, the tested form may be a part): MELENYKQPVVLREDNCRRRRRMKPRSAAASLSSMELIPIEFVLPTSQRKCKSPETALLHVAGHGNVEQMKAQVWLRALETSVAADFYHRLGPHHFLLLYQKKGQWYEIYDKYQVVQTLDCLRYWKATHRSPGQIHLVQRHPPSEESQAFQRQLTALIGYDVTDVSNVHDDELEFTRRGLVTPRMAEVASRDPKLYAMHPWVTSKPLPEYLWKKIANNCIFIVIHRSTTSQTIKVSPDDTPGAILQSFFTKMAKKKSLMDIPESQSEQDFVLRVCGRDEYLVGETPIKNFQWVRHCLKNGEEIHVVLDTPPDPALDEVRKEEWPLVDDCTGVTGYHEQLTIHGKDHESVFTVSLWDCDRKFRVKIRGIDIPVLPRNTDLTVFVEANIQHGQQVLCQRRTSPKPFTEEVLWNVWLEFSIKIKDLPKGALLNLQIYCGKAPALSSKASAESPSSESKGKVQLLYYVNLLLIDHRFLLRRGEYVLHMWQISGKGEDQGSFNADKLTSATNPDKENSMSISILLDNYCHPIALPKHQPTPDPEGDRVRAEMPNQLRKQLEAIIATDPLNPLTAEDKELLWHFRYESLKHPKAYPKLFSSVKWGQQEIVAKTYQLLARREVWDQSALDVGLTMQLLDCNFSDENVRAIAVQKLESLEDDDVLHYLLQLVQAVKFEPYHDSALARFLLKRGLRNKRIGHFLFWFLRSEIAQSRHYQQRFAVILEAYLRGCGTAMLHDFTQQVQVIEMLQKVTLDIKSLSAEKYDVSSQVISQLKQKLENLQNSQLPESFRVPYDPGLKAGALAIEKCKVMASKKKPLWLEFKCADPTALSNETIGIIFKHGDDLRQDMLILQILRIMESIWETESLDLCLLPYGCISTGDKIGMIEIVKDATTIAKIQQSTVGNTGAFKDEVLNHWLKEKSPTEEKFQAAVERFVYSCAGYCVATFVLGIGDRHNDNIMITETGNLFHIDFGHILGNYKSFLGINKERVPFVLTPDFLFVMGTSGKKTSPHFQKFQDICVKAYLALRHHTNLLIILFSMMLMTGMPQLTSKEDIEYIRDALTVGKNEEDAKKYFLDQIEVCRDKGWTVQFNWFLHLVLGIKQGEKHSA
# Assay Text: Kinase assay of PI3Kγ (solid-phase lipid kinase assay)
# Type: biochemical
# Assay Setup: in vitro PI3K-γ inhibitory activity, class symbols A-D; read-out: in vitro PI3K-gamma
Result Type: IC50

Reference set, count: 3
1) O=C(NC1=Nc2ccccc2C2=NCCN12)c1cccc([N+](=O)[O-])c1 : > 2000 nM
2) CC(C)C(=O)NC1=Nc2ccccc2C2=NCCN12 : > 2000 nM
3) COc1ccc(C(=O)NC2=Nc3ccccc3C3=NCCN23)c(OC)c1.Cl : > 2000 nM

Ask: Give Recombinant human PI3Kγ (full length human PI3K p110γ) (Homo sapiens) IC50 for the following compound: O=C(NC1=Nc2ccccc2C2=NCCN12)c1cccc(Cl)c1
Reply: > 2000 nM

====

Kindly state melting point for each of the entries shown.

Some compounds with recorded melting point:
1. O/C(=C\C1=Nc2c(Cl)cccc2C2=NCCN12)c1cccnc1 [Example 1-72] : 210 °C (dec.)
2. COc1cc2c(c(OC)c1C)N=C(NC(=O)c1ccc(NC(C)=O)nc1)N1CCN=C21 [Example 2-79] : > 310 °C
3. O/C(=C\C1=Nc2c(Br)cccc2C2=NCCN12)c1cccnc1 [Example 1-73] : 120 °C (dec.)

For every record below, what is its melting point?
1. Cc1ncccc1C(=O)NC1=Nc2ccccc2C2=NCCN12 [Example 2-131]
2. O=C(NC1=Nc2ccc(N3CCOCC3)cc2C2=NCCN12)c1cccs1 [Example 2-348]
3. O=C(NC1=Nc2ccccc2C2=NCCN12)C1CC1 [Example 2-334]
4. Cl.O=C(O)CCCCc1ccc2c(n1)N=C(/C=C(\O)c1cccnc1)N1CCN=C21 [Example 1-206]
5. O=C(NC1=Nc2ccccc2C2=NCCN12)c1cnc2ccccc2c1 [Example 2-316]
6. COc1cc2c(cc1OC)C1=NCCN1C(/C=C(\O)c1cccc(Cl)c1)=N2 [Example 1-186]
7. Cl.O=C(NC1=Nc2ccccc2C2=NCCN12)c1csc([N+](=O)[O-])c1 [Example 2-306]

Reply:
["193 to 194 °C", "124 °C", "164 to 165 °C", "267 °C", "263 to 264 °C", "257 to 259 °C", "296 °C (dec.)"]
